The reported measurements were obtained from PubChem BioAssay AID2060506.

- System: 598228-144-R-J1-PDC complex spheroid viability;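 further: spheroids exposed to the agents for one week before reading; percent of vehicle DMSO control viability so 100% = untreated growth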
- Protocol Summary: Anticancer human tumor 598228-144-R-J1-PDC patient-derived serous endometrial adenocarcinoma cell line growth inhibition [GQUAD]
- Test Settings: second compound 0.0316 µM; first compound 0.316 µM; active compounds read low
Listing: viability, T/C of selected compounds
Your answer should be a plain number; it is taken to be in %.

In the examples that follow, each entry is paired with its recorded viability, T/C.
[
  {
    "Compound": "O=C(c1cc(Cc2n[nH]c(=O)c3ccccc23)ccc1F)N1CCN(C(=O)C2CC2)CC1 + Cc1cnc(CNC(=O)c2c(=O)c3ccc(N4CCCN(C)CC4)nc3n3c2sc2ccccc23)cn1",
    "Result Value": 73
  },
  {
    "Compound": "C=CCn1c(=O)c2cnc(Nc3ccc(N4CCN(C)CC4)cc3)nc2n1-c1cccc(C(C)(C)O)n1 + CN(C)c1ccc(Nc2c3ccc(NC(=O)CCN4CCCC4)cc3nc3cc(NC(=O)CCN4CCCC4)ccc23)cc1",
    "Result Value": 65
  },
  {
    "Compound": "Cc1[nH]c2ccccc2c1CCNCc1ccc(/C=C/C(=O)NO)cc1 + Cc1cnc(CNC(=O)c2c(=O)c3ccc(N4CCCN(C)CC4)nc3n3c2sc2ccccc23)cn1",
    "Result Value": 0.76
  },
  {
    "Compound": "COc1ncnc(C2CC2)c1-c1ncc2cnn(Cc3ccc(-c4nc(C(F)(F)F)cn4C(C)C)cc3)c2n1 + CN(C)c1ccc(Nc2c3ccc(NC(=O)CCN4CCCC4)cc3nc3cc(NC(=O)CCN4CCCC4)ccc23)cc1",
    "Result Value": 95.9
  },
  {
    "Compound": "CC[C@@]1(O)C(=O)OCc2c1cc1n(c2=O)Cc2cc3c(CN(C)C)c(O)ccc3nc2-1 + Cc1cnc(CNC(=O)c2c(=O)c3ccc(N4CCCN(C)CC4)nc3n3c2sc2ccccc23)cn1",
    "Result Value": 53.9
  }
]

Problem: Consider the compound Cc1[nH]c2ccccc2c1CCNCc1ccc(/C=C/C(=O)NO)cc1 + CN(C)c1ccc(Nc2c3ccc(NC(=O)CCN4CCCC4)cc3nc3cc(NC(=O)CCN4CCCC4)ccc23)cc1 and give its measured viability, T/C.
Result: 1.08

Problem: Continue with Nc1ccn(C2OC(CO)C(O)C2(F)F)c(=O)n1 (stereo not given) + Cc1cnc(CNC(=O)c2c(=O)c3ccc(N4CCCN(C)CC4)nc3n3c2sc2ccccc23)cn1
Result: 41.7

Problem: Continue with Nc1ccn(C2OC(CO)C(O)C2(F)F)c(=O)n1 (stereo not given) + Cc1[nH]c2ccc(F)cc2c1-c1nc2c3cccnc3c3ncccc3c2[nH]1
Result: 52.1

Problem: Continue with CC(=O)O[C@H]1C(=O)[C@@]2(C)[C@H]([C@H](OC(=O)c3ccccc3)[C@]3(O)C[C@H](OC(=O)[C@H](O)[C@@H](NC(=O)c4ccccc4)c4ccccc4)C(C)=C1C3(C)C)[C@]1(OC(C)=O)CO[C@@H]1C[C@@H]2O + Cc1[nH]c2ccc(F)cc2c1-c1nc2c3cccnc3c3ncccc3c2[nH]1
Result: 48.4

Problem: Continue with COc1ccc([C@@H](O)c2cc(-c3ncnc4cc(N5CCOCC5)ccc34)c(F)cc2Cl)nn1 + CN(C)c1ccc(Nc2c3ccc(NC(=O)CCN4CCCC4)cc3nc3cc(NC(=O)CCN4CCCC4)ccc23)cc1
Result: 73.4
